study.system: T1, human MSLN-FL-his protein (human, UniProt Q13421 296-580)
T1 construct: Made in HEK293E cells, purified on nickel column; it is put last here; also called human MSLN full-length protein; hMSLN-FL-his; not shown: His tag
T1 sequence (Q13421 other isoform, or with tags, fused parts or gaps): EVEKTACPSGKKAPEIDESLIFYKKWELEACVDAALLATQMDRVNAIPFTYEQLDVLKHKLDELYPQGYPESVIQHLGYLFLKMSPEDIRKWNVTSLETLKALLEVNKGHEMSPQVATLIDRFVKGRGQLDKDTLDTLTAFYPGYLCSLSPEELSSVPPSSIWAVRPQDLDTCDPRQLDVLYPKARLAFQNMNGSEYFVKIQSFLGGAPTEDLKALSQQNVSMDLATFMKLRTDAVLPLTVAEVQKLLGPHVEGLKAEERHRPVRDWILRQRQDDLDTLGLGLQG
test.summary: ELISA on coated antigen, antibody 0.001 nM
outcome.measure: OD450 (OD)
Give bare numbers, in OD.

**Q:** Specify measured OD450 for S009-F8-29.1 (antibody, human IgG1, kappa, V domains shown, Human-murine chimeric antibody, human IgG1 heavy and kappa light constant regions) VH: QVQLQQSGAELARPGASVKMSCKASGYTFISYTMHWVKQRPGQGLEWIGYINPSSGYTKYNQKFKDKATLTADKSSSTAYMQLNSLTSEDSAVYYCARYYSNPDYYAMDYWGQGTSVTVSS VL: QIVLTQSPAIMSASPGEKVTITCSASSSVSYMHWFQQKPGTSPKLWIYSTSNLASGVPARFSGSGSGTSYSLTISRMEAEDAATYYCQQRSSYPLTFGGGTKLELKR .
**A:** 0.13
